- test-system: Adenosine receptor A1 (Homo sapiens) (UniProt P30542)
- Sequence (P30542 whole entry): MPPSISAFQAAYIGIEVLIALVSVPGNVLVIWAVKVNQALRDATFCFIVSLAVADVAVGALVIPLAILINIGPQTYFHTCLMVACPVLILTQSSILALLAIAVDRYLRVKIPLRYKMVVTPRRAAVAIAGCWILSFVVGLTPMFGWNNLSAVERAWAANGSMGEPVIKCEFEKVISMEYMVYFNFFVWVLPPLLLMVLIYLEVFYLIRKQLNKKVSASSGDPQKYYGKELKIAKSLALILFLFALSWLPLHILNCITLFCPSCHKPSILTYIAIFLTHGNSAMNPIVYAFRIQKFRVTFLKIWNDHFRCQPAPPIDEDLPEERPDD
- test-name: Displacement of [3H]DPCPX from human adenosine A1 receptor expressed in CHO cell membranes at 1 uM incubated for 60 mins by scintillation counting method
- details: Cell membrane
endpoint-name: inhibition (%)

Solved entries (count: 2):
| molecule | test-system | endpoint-unit | measured-number |
| --- | --- | --- | --- |
| CCSC(=O)C1=C(C)NC(=O)NC1c1ccoc1 (racemic) | Adenosine receptor A1 (Homo sapiens) (UniProt P30542) | % | 3 |
| CC1=C(C(=O)OC2CCC2)C(c2ccoc2)NC(=O)N1 (racemic) | Adenosine receptor A1 (Homo sapiens) (UniProt P30542) | % | 20 |

a = CCCOC(=O)C1=C(C)N(C)C(=O)NC1c1ccsc1 (racemic)
b = CCNC(=O)C1=C(C)NC(=O)NC1c1ccsc1 (racemic)
Please choose the item with the lower inhibition value from this pair: a and b Could you answer with the label of the item you picked?
a
(a: 2%, b: 3%)

P = CC1=C(C(=O)OC2CCCCC2)C(c2ccsc2)NC(=O)N1 (racemic)
Q = CCOC(=O)C1=C(C)NC(=O)N[C@H]1c1ccsc1
Please choose the item with the lower inhibition value from this pair: P and Q Could you answer with the label of the item you picked?
Q

I = CC1=C(C(=O)SC(C)C)C(c2cccs2)NC(=O)N1 (racemic)
II = CC1=C(C(=O)OCC2CC2)C(c2ccco2)NC(=O)N1 (racemic)
Please state the entry with greater inhibition among I and II . Could you answer with the label of the item you picked?
II
